System: RAW 264.7 cells
Experiment: cells
Conditions: Mus musculus, RAW264.7, 24 h, read-out: IC50, inhibition of NO formation
quantity.name: IC50
Write the numeric value and append its unit.

### Prompt Returns the measured IC50 for the input compound. Input: C[S+]([O-])CCCCN=C=S (stereo not shown) [sulforaphane, 4-methylsulfinylbutyl isothiocyanate]
### Response 300 nM

Entry source: patent US20110014137A1
